# experimental-system: Cyclin-dependent kinase 2/cyclin E1 (Homo sapiens, UniProt P24941)
# test-summary: Inhibition of GST-tagged full length CDK2/Cyclin E after 40 mins by IMAP assay
parameter-measured: IC50 (nM)

Recorded IC50, per entry:
{"smiles-entry": "Cc1oncc1CNC(=O)c1ccc2cc(-c3n[nH]cc3-c3ccccc3)[nH]c2c1", "IC50 [nM]": 400}
{"smiles-entry": "Cn1nccc1CNC(=O)c1ccc2cc(-c3cc(Cc4ccccc4)[nH]n3)[nH]c2c1", "IC50 [nM]": 12600}
{"smiles-entry": "Cn1cncc1CNC(=O)c1ccc2cc(-c3n[nH]cc3-c3ccccc3)[nH]c2c1", "IC50 [nM]": 630}

1 = Cn1nccc1CNC(=O)c1ccc2cc(-c3n[nH]cc3-c3ccccc3)[nH]c2c1
2 = CC(C)CN(C)C(=O)c1ccc2cc(-c3n[nH]cc3-c3ccccc3)[nH]c2c1
In terms of reported IC50, does 1 or 2 have the smaller number? Answer format: the label of the selected item. 1
(1: 160 nM, 2: 3160 nM)

* * *

# experimental-system: UniProt P49841
# Sequence (P49841 whole entry): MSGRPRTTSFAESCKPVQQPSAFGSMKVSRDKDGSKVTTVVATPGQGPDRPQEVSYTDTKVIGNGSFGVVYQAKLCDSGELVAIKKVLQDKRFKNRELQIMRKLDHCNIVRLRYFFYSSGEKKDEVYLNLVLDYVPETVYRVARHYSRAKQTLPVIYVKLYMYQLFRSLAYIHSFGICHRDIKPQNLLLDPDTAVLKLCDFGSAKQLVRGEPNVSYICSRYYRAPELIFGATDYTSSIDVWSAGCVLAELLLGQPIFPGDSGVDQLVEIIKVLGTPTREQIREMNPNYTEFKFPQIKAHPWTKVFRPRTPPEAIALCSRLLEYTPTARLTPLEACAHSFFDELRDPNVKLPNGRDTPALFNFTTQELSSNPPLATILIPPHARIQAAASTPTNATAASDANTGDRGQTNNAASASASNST
# test-summary: Inhibition of GST-tagged full length GSK3-beta assessed as inhibition of ATP consumption after 60 mins by luminescence assay
# conditions: read-out: IC50
pIC50: −log10 of the molar value.
parameter-measured: pIC50

{"smiles-entry": "Cc1oncc1CNC(=O)c1ccc2cc(-c3n[nH]cc3-c3ccccc3)[nH]c2c1", "pIC50": 5.64}

P = Cn1cncc1CNC(=O)c1ccc2cc(-c3n[nH]cc3-c3ccccc3)[nH]c2c1
Q = CC(C)CN(C)C(=O)c1ccc2cc(-c3n[nH]cc3-c3ccccc3)[nH]c2c1
R = Cn1nccc1CNC(=O)c1ccc2cc(-c3n[nH]cc3-c3ccccc3)[nH]c2c1
Please put the entries in order of rising pIC50. // list labels; follow requested order Q, R, P

* * *

# experimental-system: Tyrosine-protein kinase ITK/TSK (Homo sapiens)
# Sequence (Q08881 whole entry): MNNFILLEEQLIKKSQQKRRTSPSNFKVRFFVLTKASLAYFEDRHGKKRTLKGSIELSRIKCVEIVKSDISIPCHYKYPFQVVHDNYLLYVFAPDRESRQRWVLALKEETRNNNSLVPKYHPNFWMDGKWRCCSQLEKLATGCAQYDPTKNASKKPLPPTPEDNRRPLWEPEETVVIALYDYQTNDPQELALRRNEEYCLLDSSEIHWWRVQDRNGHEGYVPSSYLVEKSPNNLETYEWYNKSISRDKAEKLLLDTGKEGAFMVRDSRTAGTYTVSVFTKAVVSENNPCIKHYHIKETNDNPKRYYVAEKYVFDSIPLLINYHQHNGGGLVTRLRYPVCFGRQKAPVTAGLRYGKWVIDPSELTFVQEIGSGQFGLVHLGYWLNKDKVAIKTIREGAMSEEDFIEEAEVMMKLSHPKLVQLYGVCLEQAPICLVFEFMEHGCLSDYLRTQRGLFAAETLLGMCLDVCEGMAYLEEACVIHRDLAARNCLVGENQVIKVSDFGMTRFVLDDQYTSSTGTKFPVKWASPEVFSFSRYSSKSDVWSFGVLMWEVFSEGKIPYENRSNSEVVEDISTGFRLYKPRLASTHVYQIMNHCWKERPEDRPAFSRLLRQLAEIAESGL
# test-summary: Inhibition of GST-tagged full length recombinant ITK after 2 hrs by IMAP assay
pIC50: −log10 of the molar value.
parameter-measured: pIC50

Recorded pIC50, per entry:
{"smiles-entry": "Cn1cncc1CNC(=O)c1ccc2c(CN3CCOCC3)c(-c3cc(Cc4ccccc4)[nH]n3)[nH]c2c1", "pIC50": 6.20}
{"smiles-entry": "COc1ccc(CNCc2c(-c3n[nH]cc3-c3ccccc3)[nH]c3cc(C(=O)N(C)CC(C)C)ccc23)cc1", "pIC50": 4.69}
{"smiles-entry": "Cn1nccc1CNC(=O)c1ccc2cc(-c3n[nH]cc3-c3ccccc3)[nH]c2c1", "pIC50": 6.20}
{"smiles-entry": "CC(C)CN(C)C(=O)c1ccc2cc(-c3cc(Cc4ccccc4)[nH]n3)[nH]c2c1", "pIC50": 6.25}

I = CC(C)CN(C)C(=O)c1ccc2cc(-c3n[nH]cc3-c3ccccc3)[nH]c2c1
II = Cc1oncc1CNC(=O)c1ccc2cc(-c3n[nH]cc3-c3ccccc3)[nH]c2c1
III = CNC(=O)c1ccc2c(CNCc3ccncc3)c(-c3cc(Cc4ccccc4)[nH]n3)[nH]c2c1
IV = COCCNC(=O)c1ccc2cc(-c3cc(-c4ccccc4)[nH]n3)[nH]c2c1
Reorder: pIC50, max to min. // list labels; follow requested order I, II, IV, III
(I: 6.48, II: 6.20, IV: 5.50, III: 5.30)

1 = Cn1cncc1CNC(=O)c1ccc2cc(-c3n[nH]cc3-c3ccccc3)[nH]c2c1
2 = Cc1oncc1CNC(=O)c1ccc2cc(-c3cc(-c4ccccc4)[nH]n3)[nH]c2c1
In terms of reported pIC50, does 1 or 2 have the smaller number? Answer format: the label of the selected item. 2

I = Cn1nccc1CNC(=O)c1ccc2cc(-c3cc(Cc4ccccc4)[nH]n3)[nH]c2c1
II = CC(C)CN(C)C(=O)c1ccc2c(CNCc3ccc(F)cc3)c(-c3cc(Cc4ccccc4)[nH]n3)[nH]c2c1
In terms of reported pIC50, does I or II have the smaller number? Answer format: the label of the selected item. I

I = CC(C)CN(C)C(=O)c1ccc2cc(-c3cc(-c4ccccc4)[nH]n3)[nH]c2c1
II = COCCNC(=O)c1ccc2cc(-c3n[nH]cc3-c3ccccc3)[nH]c2c1
Lab notebook, comparison: I versus II , higher pIC50 goes to which? Answer format: the label of the selected item. I

* * *

# experimental-system: Insulin receptor (Homo sapiens)
# Sequence (P06213 28-758 limits assumed): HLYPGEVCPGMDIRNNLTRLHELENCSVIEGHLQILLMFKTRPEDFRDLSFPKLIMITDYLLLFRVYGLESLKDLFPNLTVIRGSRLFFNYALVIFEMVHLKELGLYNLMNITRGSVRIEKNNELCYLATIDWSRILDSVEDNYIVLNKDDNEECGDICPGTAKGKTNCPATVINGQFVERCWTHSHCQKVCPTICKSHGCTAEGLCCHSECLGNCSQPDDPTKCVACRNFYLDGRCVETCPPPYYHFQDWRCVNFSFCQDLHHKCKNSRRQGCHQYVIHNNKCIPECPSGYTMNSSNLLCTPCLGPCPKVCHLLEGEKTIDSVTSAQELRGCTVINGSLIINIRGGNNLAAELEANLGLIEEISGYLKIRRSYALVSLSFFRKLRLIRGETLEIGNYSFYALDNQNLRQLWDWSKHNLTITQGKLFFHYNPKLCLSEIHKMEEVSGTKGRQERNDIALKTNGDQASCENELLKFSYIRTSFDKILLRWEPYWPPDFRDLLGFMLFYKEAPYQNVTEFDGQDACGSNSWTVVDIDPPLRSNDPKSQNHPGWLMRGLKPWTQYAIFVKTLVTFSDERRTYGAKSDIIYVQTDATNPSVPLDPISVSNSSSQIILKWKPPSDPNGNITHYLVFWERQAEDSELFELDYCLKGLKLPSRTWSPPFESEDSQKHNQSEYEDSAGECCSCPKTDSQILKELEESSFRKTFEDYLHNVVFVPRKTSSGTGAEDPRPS
# Sequence (P06213 763-1382 limits assumed): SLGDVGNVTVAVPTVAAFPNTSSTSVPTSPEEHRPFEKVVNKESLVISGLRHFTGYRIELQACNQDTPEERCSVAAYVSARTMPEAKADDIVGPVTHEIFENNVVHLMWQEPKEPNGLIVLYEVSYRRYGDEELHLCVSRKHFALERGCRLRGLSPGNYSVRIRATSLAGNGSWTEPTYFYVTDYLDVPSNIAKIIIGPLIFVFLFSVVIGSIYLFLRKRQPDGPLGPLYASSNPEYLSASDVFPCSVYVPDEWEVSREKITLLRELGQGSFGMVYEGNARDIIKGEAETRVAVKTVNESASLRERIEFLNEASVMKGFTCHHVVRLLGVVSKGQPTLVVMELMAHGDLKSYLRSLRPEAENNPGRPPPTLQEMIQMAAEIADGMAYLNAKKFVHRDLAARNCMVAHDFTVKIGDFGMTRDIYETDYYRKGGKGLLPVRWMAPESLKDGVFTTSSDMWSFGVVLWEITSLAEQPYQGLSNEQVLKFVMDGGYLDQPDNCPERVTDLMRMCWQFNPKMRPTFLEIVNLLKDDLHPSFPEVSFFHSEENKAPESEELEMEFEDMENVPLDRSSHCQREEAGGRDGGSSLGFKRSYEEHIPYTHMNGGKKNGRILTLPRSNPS
# test-summary: Inhibition of GST-tagged recombinant INSR catalytic domain expressed in baculovirus-infected Sf21 cells after 80 mins by IMAP assay
pIC50: −log10 of the molar value.
parameter-measured: pIC50

Recorded pIC50, per entry:
{"smiles-entry": "Cn1nccc1CNC(=O)c1ccc2cc(-c3n[nH]cc3-c3ccccc3)[nH]c2c1", "experimental-system": "Insulin receptor (Homo sapiens)", "pIC50": 5.03}
{"smiles-entry": "Cn1cncc1CNC(=O)c1ccc2cc(-c3cc(Cc4ccccc4)[nH]n3)[nH]c2c1", "experimental-system": "Insulin receptor (Homo sapiens)", "pIC50": 5.30}
{"smiles-entry": "Cc1oncc1CNC(=O)c1ccc2cc(-c3n[nH]cc3-c3ccccc3)[nH]c2c1", "experimental-system": "Insulin receptor (Homo sapiens)", "pIC50": 5.24}

a = Cn1cncc1CNC(=O)c1ccc2cc(-c3n[nH]cc3-c3ccccc3)[nH]c2c1
b = Cn1nccc1CNC(=O)c1ccc2cc(-c3cc(Cc4ccccc4)[nH]n3)[nH]c2c1
In terms of reported pIC50, does a or b have the smaller number? Answer format: the label of the selected item. b

* * *

# experimental-system: Tyrosine-protein kinase ITK/TSK (Homo sapiens)
# test-summary: Inhibition of GST-tagged full length recombinant ITK after 2 hrs by IMAP assay
pIC50: −log10 of the molar value.
parameter-measured: pIC50

{"smiles-entry": "Cn1cncc1CNC(=O)c1ccc2cc(-c3cc(-c4ccccc4)[nH]n3)[nH]c2c1", "experimental-system": "Tyrosine-protein kinase ITK/TSK (Homo sapiens)", "obs-value": 5.90}

P = Cn1nccc1CNC(=O)c1ccc2c(CO)c(-c3cc(Cc4ccccc4)[nH]n3)[nH]c2c1
Q = Cn1cncc1CNC(=O)c1ccc2cc(-c3cc(Cc4ccccc4)[nH]n3)[nH]c2c1
R = Cn1nccc1CNC(=O)c1ccc2cc(-c3cc(-c4ccccc4)[nH]n3)[nH]c2c1
Please put the entries in order of rising pIC50. // list labels; follow requested order R, P, Q
(R: 5.50, P: 5.80, Q: 6.20)
